target: COX-2 (Homo sapiens); construct: To induce COX-2, lipopolysaccharide (LPS) from E. coli; endogenous in cells; host or cells: heparinised human whole blood from donors, with COX-2 induced by E. coli LPS; assay: Human COX-2 enzyme activity in human whole blood (LPS-induced, thromboxane B2 EIA); format: cell-based; details: 1 μM; human whole blood; LPS induction; read-out: COX-2 Inhibition (% at 1 μM)
Recorded measurements of inhibition at 1 µM, one per entry
Field format: number, assumed %, no unit text.

Field: example entries. Status: answers known.
CS(=O)(=O)c1ccc(-c2cc(COCCCO[N+](=O)[O-])nn2C2CCCCC2)cc1 [Example 16c] | 45
NS(=O)(=O)c1ccc(-c2cc(C(=O)CCCO[N+](=O)[O-])nn2C2CCCCC2)cc1 [Example 43h] | 10
CS(=O)(=O)c1ccc(-c2cc(CNCCO)nn2C2CCCCC2)cc1 [Example 38c] | 15
COc1ccc(-n2nc(COCCCO[N+](=O)[O-])cc2-c2ccc(S(C)(=O)=O)cc2)cc1 | 85
CS(=O)(=O)c1ccc(-c2cc(COCCO)nn2C2CCCCC2)cc1 [Example 15d] | 0

Field: next compound
Provide COX-2 (Homo sapiens) inhibition at 1 µM reading for CS(=O)(=O)c1ccc(-c2cc(CO)nn2C2CCCCCC2)cc1 .
10

* * *

reported endpoint: melting point

Field: example entries. Status: answers known.
NS(=O)(=O)c1ccc(-c2cc(C(=O)CCCO[N+](=O)[O-])nn2C2CCCCC2)cc1 [Example 43h] | 45 to 47 °C
Cc1ccc(-n2nc(C(=O)CCCO[N+](=O)[O-])cc2-c2ccc(S(C)(=O)=O)cc2)cc1 [Example 12e] | 107 to 109 °C
CS(=O)(=O)c1ccc(-c2cc(CCO[N+](=O)[O-])nn2C2CCCCC2)cc1 [Example 30d] | 117 °C
CS(=O)(=O)c1ccc(-c2cc(C(=O)CCCO[N+](=O)[O-])nn2-c2ccc(C(F)(F)F)cc2)cc1 [Example 23e] | 152 to 154 °C

Determine its reported melting point: CS(=O)(=O)c1ccc(-c2cc(C(=O)NCCO[N+](=O)[O-])nn2C2CCCCC2)cc1 [Example 45c]
168 to 170 °C

* * *

Molecular target: COX-2 (Homo sapiens, UniProt P35354)
Construct: To induce COX-2, lipopolysaccharide (LPS) from E. coli; endogenous in cells; host or cells: heparinised human whole blood from donors, with COX-2 induced by E. coli LPS
Sequence (P35354 18-604): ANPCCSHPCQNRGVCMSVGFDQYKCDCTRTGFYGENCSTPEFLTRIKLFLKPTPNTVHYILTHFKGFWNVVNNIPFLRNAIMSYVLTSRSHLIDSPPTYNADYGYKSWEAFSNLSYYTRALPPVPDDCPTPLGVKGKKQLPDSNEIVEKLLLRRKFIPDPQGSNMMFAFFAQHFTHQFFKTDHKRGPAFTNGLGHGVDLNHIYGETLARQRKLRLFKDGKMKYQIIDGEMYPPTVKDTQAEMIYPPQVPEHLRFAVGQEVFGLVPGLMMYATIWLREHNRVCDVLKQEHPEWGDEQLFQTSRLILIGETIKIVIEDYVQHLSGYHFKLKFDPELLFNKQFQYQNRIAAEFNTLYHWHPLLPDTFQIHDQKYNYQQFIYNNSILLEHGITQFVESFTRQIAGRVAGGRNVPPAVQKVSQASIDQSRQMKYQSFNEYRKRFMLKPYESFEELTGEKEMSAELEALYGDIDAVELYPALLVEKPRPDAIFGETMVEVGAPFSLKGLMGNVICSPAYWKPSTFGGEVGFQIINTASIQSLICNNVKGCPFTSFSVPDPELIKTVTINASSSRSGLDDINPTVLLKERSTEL
Assay: Human COX-2 enzyme activity in human whole blood (LPS-induced, thromboxane B2 EIA)
Assay type: cell-based
Conditions: 10 μM; human whole blood; LPS induction; read-out: COX-2 Inhibition (% at 10 μM)
reported endpoint: inhibition at 10 µM
Please report the result as a number followed by the unit.

Field: example entries. Status: answers known.
CS(=O)(=O)c1ccc(-c2cc(COCCCO[N+](=O)[O-])nn2-c2ccc(F)cc2)cc1 [Example 18e] | 95%
CS(=O)(=O)c1ccc(-c2cc(COCCCO)nn2-c2ccc(C(F)(F)F)cc2)cc1 [Example 9d] | 85%
Cc1ccc(-n2nc(C(=O)CCCO)cc2-c2ccc(S(C)(=O)=O)cc2)cc1 [Example 12d] | 45%

Field: next compound
Determine its reported inhibition at 10 µM: CS(=O)(=O)c1ccc(-c2cc(/C=C/CO)nn2C2CCCCC2)cc1 [Example 31c]
15%

* * *

molecular target: COX-1 (Homo sapiens, UniProt P23219); construct: endogenous in cells; host or cells: heparinised human whole blood from donors, stimulated with the calcium ionophore A23187; assay: Human COX-1 enzyme activity in human whole blood (A23187-stimulated, thromboxane B2 EIA); format: cell-based; details: 100 μM; human whole blood; A23187 stimulation; read-out: COX-1 Inhibition (% at 100 μM)
Sequence (P23219 24-599): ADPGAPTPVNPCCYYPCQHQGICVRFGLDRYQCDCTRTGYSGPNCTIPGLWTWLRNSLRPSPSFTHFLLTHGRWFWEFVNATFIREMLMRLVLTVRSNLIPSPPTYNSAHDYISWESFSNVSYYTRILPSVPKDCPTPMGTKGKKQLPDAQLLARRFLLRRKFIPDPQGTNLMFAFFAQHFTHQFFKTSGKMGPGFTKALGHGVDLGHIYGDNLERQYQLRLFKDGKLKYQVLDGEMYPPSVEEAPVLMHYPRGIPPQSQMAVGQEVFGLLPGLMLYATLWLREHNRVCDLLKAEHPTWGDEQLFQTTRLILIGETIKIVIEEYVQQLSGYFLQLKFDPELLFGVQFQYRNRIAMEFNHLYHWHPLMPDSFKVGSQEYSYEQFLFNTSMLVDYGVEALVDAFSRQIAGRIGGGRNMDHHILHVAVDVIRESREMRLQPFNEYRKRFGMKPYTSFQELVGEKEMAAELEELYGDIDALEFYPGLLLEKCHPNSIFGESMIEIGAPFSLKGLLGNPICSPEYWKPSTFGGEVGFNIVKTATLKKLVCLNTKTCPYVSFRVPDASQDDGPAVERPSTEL
Note to self: values exactly at 40% are Yes. So inhibition at 100 µM at or above 40% is Yes, below is No.

CS(=O)(=O)c1ccc(-c2cc(/C=C/CCO[N+](=O)[O-])nn2C2CCCCC2)cc1 [Example 21c] | Yes
CS(=O)(=O)c1ccc(-c2cc(COCCCO[N+](=O)[O-])nn2-c2ccccc2)cc1 | Yes
CS(=O)(=O)c1ccc(-c2cc(COCCCO[N+](=O)[O-])nn2-c2ccc(C(F)(F)F)cc2)cc1 | Yes
CS(=O)(=O)c1ccc(-c2cc(/C=C/CO)nn2C2CCCCC2)cc1 [Example 31c] | No
CS(=O)(=O)c1ccc(-c2cc(COCCO)nn2C2CCCCC2)cc1 [Example 15d] | No

Check if inhibition at 100 µM >= 40% (inclusive). Item: CS(=O)(=O)c1ccc(-c2cc(C(=O)CCCO)nn2-c2ccc(Br)cc2)cc1 [Example 14d]
No

* * *

Target: COX-2 (Homo sapiens)
Construct: To induce COX-2, lipopolysaccharide (LPS) from E. coli; endogenous in cells; host or cells: heparinised human whole blood from donors, with COX-2 induced by E. coli LPS
Sequence (P35354 18-604): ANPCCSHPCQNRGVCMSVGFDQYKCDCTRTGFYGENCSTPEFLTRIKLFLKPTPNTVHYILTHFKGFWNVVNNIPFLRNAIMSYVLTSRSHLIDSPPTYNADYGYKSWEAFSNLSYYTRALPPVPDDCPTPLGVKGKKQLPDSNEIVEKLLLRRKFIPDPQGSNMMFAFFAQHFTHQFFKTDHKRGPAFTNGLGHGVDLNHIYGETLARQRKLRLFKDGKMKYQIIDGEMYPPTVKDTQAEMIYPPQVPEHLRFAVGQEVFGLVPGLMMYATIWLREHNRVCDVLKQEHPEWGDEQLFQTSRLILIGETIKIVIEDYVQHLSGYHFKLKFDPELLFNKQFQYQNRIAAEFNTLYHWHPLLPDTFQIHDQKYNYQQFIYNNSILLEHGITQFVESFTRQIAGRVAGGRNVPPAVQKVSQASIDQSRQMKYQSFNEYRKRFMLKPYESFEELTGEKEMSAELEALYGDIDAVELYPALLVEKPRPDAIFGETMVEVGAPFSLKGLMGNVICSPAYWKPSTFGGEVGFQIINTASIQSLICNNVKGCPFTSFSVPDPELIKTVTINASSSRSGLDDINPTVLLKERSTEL
Assay: Human COX-2 enzyme activity in human whole blood (LPS-induced, thromboxane B2 EIA)
Type: cell-based
Settings: 1 μM; human whole blood; LPS induction
Please note: COX-2 Inhibition (% at 1 μM) exactly at 40% is false (0). Only values below 40% get true (1).

CS(=O)(=O)c1ccc(-n2nc(/C=C\CCO)cc2-c2cccnc2)cc1 [Example 25e] | true (1)

Please check: COX-2 Inhibition (% at 1 μM) for NS(=O)(=O)c1ccc(-c2c(-c3ccccc3)noc2COCC(F)(F)CO[N+](=O)[O-])cc1 [Example 32d] , strictly under 40% or not?
true (1)

Please check: COX-2 Inhibition (% at 1 μM) for COc1ccc(-n2nc(C(=O)CCCO[N+](=O)[O-])cc2-c2ccc(S(C)(=O)=O)cc2)cc1 [Example 24e] , strictly under 40% or not?
false (0)

* * *

target: COX-1 (Homo sapiens); construct: endogenous in cells; host or cells: heparinised human whole blood from donors, stimulated with the calcium ionophore A23187; experiment: Human COX-1 enzyme activity in human whole blood (A23187-stimulated, thromboxane B2 EIA); assay type: cell-based; conditions: 100 μM; human whole blood; A23187 stimulation; read-out: COX-1 Inhibition (% at 100 μM)
Recorded measurements of inhibition at 100 µM, one per entry
Field format: number, assumed %, no unit text.

Field: example entries. Status: answers known.
NS(=O)(=O)c1ccc(-c2cc(C(=O)CCCO[N+](=O)[O-])nn2C2CCCCC2)cc1 [Example 43h] | 50
Cc1ccc(-n2nc(C(=O)CCCO[N+](=O)[O-])cc2-c2ccc(S(C)(=O)=O)cc2)cc1 [Example 12e] | 55
CS(=O)(=O)c1ccc(-c2cc(COCCCO)nn2-c2ccc(Cl)cc2)cc1 | 80

Determine its reported inhibition at 100 µM: COc1ccc(-n2nc(C(=O)CCCO)cc2-c2ccc(S(C)(=O)=O)cc2)cc1 [Example 24d]
85

Determine its reported inhibition at 100 µM: CS(=O)(=O)c1ccc(-c2cc(/C=C\CCO[N+](=O)[O-])nn2-c2ccccc2)cc1 [Example 11e]
90
